Answer each item with its documented caspase 30 μM.
# System: Caspase 3
# assay method text: Caspase 3 detection assay in SJSA1 cells
# Type: cell-based
# condition details: 30 μM, SJSA1, 48 h, Caspase 3 activation over DMSO-treated cells
Bridge positions count the residues as written; N and C are the ends. Square brackets hold non-standard residues; d marks the D form. Peptide text beside a SMILES is read from it. R8 = C=CCCCCCC[C@@](C)(N)C(=O)O; S5 = C=CCCC[C@](C)(N)C(=O)O

>>> result("CC(=O)N[C@@H](CC(C)C)C(=O)N[C@H](C(=O)N[C@@H](Cc1ccccc1)C(=O)N[C@]1(C)CCCCCCC=CCCC[C@@](C)(C(=O)N[C@@H](CO)C(=O)N[C@@H](Cc2c[nH]c3ccccc23)C(=O)N[C@@H](C)C(N)=O)NC(=O)[C@H](CC(C)C)NC(=O)[C@H](CCC(N)=O)NC(=O)[C@H](C)NC(=O)[C@H](Cc2c[nH]c3ccccc23)NC(=O)[C@H](Cc2ccc(O)cc2)NC(=O)[C@H](C)NC1=O)[C@@H](C)O (single isomer, unassigned) [compound 120]")
30

Next up:
Item CC[C@H](C)[C@H](NC(C)=O)C(=O)N[C@H](C(=O)N[C@@H](Cc1ccccc1)C(=O)N[C@]1(C)CCCCCCC=CCCC[C@@](C)(C(=O)N[C@@H](C)C(=O)N[C@@H](C)C(=O)N[C@H](C(=O)N[C@H](C)C(N)=O)[C@@H](C)CC)NC(=O)[C@H](CC(C)C)NC(=O)[C@H](CCC(N)=O)NC(=O)[C@H](C(C)C)NC(=O)[C@H](Cc2c[nH]c3ccccc23)NC(=O)[C@H](Cc2ccc(O)cc2)NC(=O)[C@H](Cc2ccccc2)NC1=O)[C@@H](C)O [compound 177] (Ac-ITF[R8]FYWVQL[S5]AAI[dA]-NH2; staple 4-11) has what recorded caspase 30 μM? 20

====

# assay method text: Circular dichroism (CD) analysis of alpha-helicity
# Type: physicochemical
# condition details: 222 nm
# Protocol: Peptide solutions were analyzed by CD spectroscopy using a Jasco J-815 spectropolarimeter (Jasco Inc., Easton, Md.) with the Jasco Spectra Manager Ver. 2 system software. A Peltier temperature controller was used to maintain temperature control of the optical cell. […] Peptide concentrations were determined by amino acid analysis. […]
measured attribute: Molar Ellipticity TFE − Molar Ellipticity Benign (deg cm^2 dmol^−1)
One number for each entry, in deg cm^2 dmol^−1.

Here are 2 molecules together with their reported answers.
>>> result("CC(=O)N[C@@H](CC(C)C)C(=O)N[C@H](C(=O)N[C@@H](Cc1ccccc1)C(=O)N[C@]1(C)CCCCCCC=CCCC[C@@](C)(C(=O)N[C@@H](C)C(=O)N[C@@H](C)C(=O)N[C@@H](C)C(=O)N[C@H](C)C(N)=O)NC(=O)[C@H](CC(C)C)NC(=O)[C@H](CCC(N)=O)NC(=O)[C@H](C)NC(=O)[C@H](Cc2c[nH]c3ccccc23)NC(=O)[C@H](Cc2ccc(O)cc2)NC(=O)[C@H](C)NC1=O)[C@@H](C)O (single isomer, unassigned) [compound 230]")
"−17760.8"
>>> result("CCCC[C@H](NC(=O)[C@H](C)NC(=O)[C@H](C)NC(=O)[C@]1(C)CCC/C=C/CCCCCC[C@@](C)(NC(=O)[C@H](Cc2ccccc2)NC(=O)[C@@H](NC(=O)[C@H](CC(C)C)NC(C)=O)[C@@H](C)O)C(=O)N[C@@H](C)C(=O)N[C@@H](Cc2ccc(O)cc2)C(=O)N[C@@H](Cc2c[nH]c3ccccc23)C(=O)N[C@@H](C)C(=O)N[C@@H](CCC(N)=O)C(=O)N[C@@H](CC(C)C)C(=O)N1)C(=O)N[C@@H](C)C(N)=O [compound 69]")
"−21407.1"

Next item in the queue.
Report Molar Ellipticity TFE − Molar Ellipticity Benign for CC[C@H](C)[C@H](NC(=O)[C@H](C)NC(=O)[C@H](C)NC(=O)[C@]1(C)CCC/C=C/CCCCCC[C@@](C)(NC(=O)[C@H](Cc2ccccc2)NC(=O)[C@@H](NC(=O)[C@H](CC(C)C)NC(C)=O)[C@@H](C)O)C(=O)N[C@@H](C)C(=O)N[C@@H](Cc2ccc(O)cc2)C(=O)N[C@@H](Cc2c[nH]c3ccccc23)C(=O)N[C@@H](C)C(=O)N[C@@H](CCC(N)=O)C(=O)N[C@@H](CC(C)C)C(=O)N1)C(=O)N[C@H](C)C(N)=O [compound 71] please. −17835.9

====

# System: SJSA-1 cells
# assay method text: Cell lysis by peptidomimetic macrocycles (LDH release)
# Type: cell-based
# condition details: 50 μM, SJSA-1, 1 h
Bridge positions count the residues as written; N and C are the ends. Square brackets hold non-standard residues; d marks the D form. Peptide text beside a SMILES is read from it. R8 = C=CCCCCCC[C@@](C)(N)C(=O)O; Cba = N[C@@H](CC1CCC1)C(=O)O; S5 = C=CCCC[C@](C)(N)C(=O)O; Nle = CCCC[C@H](N)C(=O)O; Ac3c = NC1(C(=O)O)CC1; Aib = CC(C)(N)C(=O)O
Please provide measured 50 μM % Lysed cells (1 h LDH) for the entries that follow.
Numbers only, in %.

Below are worked cases with known answers.
>>> result("CC[C@H](C)[C@H](NC(=O)[C@H](C)NC(=O)[C@H](C)NC(=O)[C@]1(C)CCCC=CCCCCCC[C@@](C)(NC(=O)[C@H](Cc2ccccc2)NC(=O)[C@@H](NC(=O)[C@H](CCC(=O)O)NC(C)=O)[C@@H](C)O)C(=O)N[C@@H](CCC(=O)O)C(=O)N[C@@H](Cc2c[nH]cn2)C(=O)N[C@@H](Cc2c[nH]c3ccccc23)C(=O)N[C@@H](C)C(=O)N[C@@H](CCC(N)=O)C(=O)N[C@@H](CC(C)C)C(=O)N1)C(=O)N[C@H](C)C(N)=O (single isomer, unassigned) [compound 174]")
5
>>> result("CC[C@H](C)[C@H](NC(=O)[C@H](C)NC(=O)[C@H](C)NC(=O)[C@]1(C)CCCC=CCCCCCC[C@@](C)(NC(=O)[C@H](Cc2ccccc2)NC(=O)[C@@H](NC(=O)[C@H](CC(C)C)NC(C)=O)[C@@H](C)O)C(=O)N[C@@H](CCC(=O)O)C(=O)N[C@@H](Cc2ccc(C(=O)O)cc2)C(=O)N[C@@H](Cc2c[nH]c3cc(Cl)ccc23)C(=O)N[C@@H](C)C(=O)N[C@@H](CCC(N)=O)C(=O)N[C@@H](CC2CCC2)C(=O)N1)C(=O)N[C@H](C)C(N)=O (single isomer, unassigned) [compound 335]")
1
>>> result("CC(=O)N[C@@H](Cc1ccccc1)C(=O)N[C@]1(C)CCCCCCC=CCCC[C@@](C)(C(=O)N[C@@H](C)C(=O)N[C@@H](C)C(=O)NC(C)(C)C(N)=O)NC(=O)[C@H](CC(C)C)NC(=O)C2(CC2)NC(=O)[C@H](CCC(=O)O)NC(=O)[C@H](Cc2c[nH]c3ccccc23)NC(=O)[C@H](Cc2ccc(O)cc2)NC(=O)[C@H](C)NC1=O [compound 22] (Ac-F[R8]AYWE[Ac3c]L[S5]AA[Aib]-NH2; staple 2-9)")
0
>>> result("CC[C@H](C)[C@H](NC(=O)[C@H](C)NC(=O)[C@H](C)NC(=O)[C@]1(C)CCCC=CCCCCCC[C@@](C)(NC(=O)[C@H](Cc2ccccc2)NC(=O)[C@@H](NC(=O)[C@H](CC(C)C)NC(C)=O)[C@@H](C)O)C(=O)N[C@@H](C)C(=O)N[C@@H](Cc2ccc(O)cc2)C(=O)N[C@@H](Cc2c[nH]c3ccccc23)C(=O)N[C@@H](C)C(=O)N[C@@H](C)C(=O)N[C@@H](CC(C)C)C(=O)N1)C(=O)N[C@@H](C(N)=O)C(C)C (single isomer, unassigned) [compound 77]")
"−1"
>>> result("CC(=O)N[C@@H](CC(C)C)C(=O)N[C@H](C(=O)N[C@@H](Cc1ccccc1)C(=O)N[C@]1(C)CCCCCCC=CCCC[C@@](C)(C(=O)N[C@@H](CO)C(=O)N[C@@H](Cc2c[nH]c3ccccc23)C(=O)N[C@@H](C)C(N)=O)NC(=O)[C@H](CC(C)C)NC(=O)[C@H](CCC(N)=O)NC(=O)[C@H](C)NC(=O)[C@H](Cc2c[nH]c3ccccc23)NC(=O)[C@H](Cc2ccc(O)cc2)NC(=O)[C@H](C)NC1=O)[C@@H](C)O (single isomer, unassigned) [compound 120]")
6
>>> result("CC[C@H](C)[C@H](NC(=O)[C@H](C)NC(=O)[C@H](C)NC(=O)[C@]1(C)CCCC=CCCCCCC[C@@](C)(NC(=O)[C@H](Cc2ccccc2)NC(=O)[C@@H](NC(=O)[C@H](CC(C)C)NC(C)=O)[C@@H](C)O)C(=O)N[C@@H](C)C(=O)N[C@@H](Cc2ccc(O)cc2)C(=O)N[C@@H](Cc2c[nH]c3ccccc23)C(=O)N[C@@H](C)C(=O)N[C@@H](CCC(N)=O)C(=O)N[C@@H](CC(C)C)C(=O)N1)C(=O)N[C@H](CC(C)C)C(N)=O (single isomer, unassigned) [compound 81]")
0
>>> result("CCCC[C@H](NC(=O)[C@H](C)NC(=O)[C@H](C)NC(=O)[C@]1(C)CCCC=CCCCCCC[C@@](C)(NC(=O)[C@H](Cc2ccccc2)NC(=O)[C@@H](NC(=O)[C@H](CCC(=O)O)NC(C)=O)[C@@H](C)O)C(=O)N[C@@H](C)C(=O)N[C@@H](Cc2ccc(O)cc2)C(=O)N[C@@H](Cc2c[nH]c3ccccc23)C(=O)N[C@@H](C)C(=O)N[C@@H](CCC(N)=O)C(=O)N[C@@H](CC2CCC2)C(=O)N1)C(=O)N[C@@H](C)C(N)=O [compound 237] (Ac-ETF[R8]AYWAQ[Cba][S5]AA[Nle]A-NH2; staple 4-11)")
55
>>> result("CCCCCC(=O)N[C@@H](CC(C)C)C(=O)N[C@H](C(=O)N[C@@H](Cc1ccccc1)C(=O)N[C@]1(C)CCCCCCC=CCCC[C@@](C)(C(=O)N[C@@H](CO)C(=O)N[C@@H](C)C(=O)N[C@@H](C)C(N)=O)NC(=O)[C@H](CCC(C)C)NC(=O)[C@H](CCC(N)=O)NC(=O)[C@H](C)NC(=O)[C@H](Cc2c[nH]c3ccccc23)NC(=O)[C@H](Cc2ccc(O)cc2)NC(=O)[C@H](CCC(=O)O)NC1=O)[C@@H](C)O [compound 280]")
18

Turning now to a further molecule:
For CCCC[C@H](NC(=O)[C@H](C)NC(=O)[C@H](C)NC(=O)[C@]1(C)CCCC=CCCCCCC[C@@](C)(NC(=O)[C@H](Cc2ccccc2)NC(=O)[C@@H](NC(=O)[C@H](CC(C)C)NC(C)=O)[C@@H](C)O)C(=O)N[C@@H](C)C(=O)N[C@@H](Cc2ccc(O)cc2)C(=O)N[C@@H](Cc2c[nH]c3ccccc23)C(=O)N[C@@H](C)C(=O)N[C@@H](CCC(N)=O)C(=O)N[C@@H](CC(C)C)C(=O)N1)C(=O)N[C@H](C)C(N)=O (single isomer, unassigned) [compound 75] , what is its reported 50 μM % Lysed cells (1 h LDH)? 1

The origin of these recorded values is patent US20200369728A1.
